- System: LOX IMVI melanoma
- assay.method.text: NCI tumour cell line growth inhibition, 48 h
Reported TGI by item:
measure.name: TGI

[[record]]
molecule = "Brc1cc2c(cc1C1SCCS1)OCO2"
observed_result = "> 100 µM"

[[record]]
molecule = "C/C(=N\\NC(=S)N(C)CCN(C)C(=S)N/N=C(\\C)c1ccccn1)c1ccccn1"
observed_result = "22.6 µM"

[[record]]
molecule = "C=C(C)[C@@H]1CC[C@]2(CO)CC[C@]3(C)[C@H](CC[C@@H]4[C@@]5(C)CCC(NCCc6ccc(O)cc6)C(C)(C)[C@@H]5CC[C@]43C)[C@@H]12 (some centres undefined)"
observed_result = "2.09 µM"

[[record]]
molecule = "O=c1oc(=O)c2oc3ccccc3oc1=2"
observed_result = "> 100 µM"

[[record]]
molecule = "CCCCCCc1nc2nc(Cl)c(Cl)nc2[nH]1"
observed_result = "> 100 µM"

[[record]]
molecule = "CC(=O)[C@@]1(O)[C@H](C)C[C@H]2[C@@H]3C=C(C)C4=Cc5c(cnn5-c5ccccc5)C[C@]4(C)[C@H]3[C@@H](O)C[C@@]21C"
observed_result = "4.6 µM"

[[record]]
molecule = "S=c1nc(Cl)cc2[nH]c(Cl)cn12"
observed_result = "> 100 µM"

[[record]]
molecule = "O=C1c2ccccc2-c2c1c1c(O)cccc1n2-c1ccccc1"
observed_result = "> 100 µM"

[[record]]
molecule = "Cc1cc(O)cc(C)c1/C=C/c1cncc(-c2nn[nH]n2)c1"
observed_result = "> 25 µM"

[[record]]
molecule = "CC(=O)N1CC(=O)N2C(=O)/C(=C/c3ccc(Cl)cc3)N=C12"
observed_result = "> 100 µM"

[[record]]
molecule = "O=c1c2cc([N+](=O)[O-])ccc2nc2n1CCCCC2"
observed_result = "> 100 µM"

[[record]]
molecule = "CC(=O)C1(N=Nc2ccc(S(N)(=O)=O)cc2)CCOC1=O (centres undefined)"
observed_result = "> 100 µM"

[[record]]
molecule = "CCOC(=O)C(C)(C)C(O)C(C)C (centres undefined)"
observed_result = "> 100 µM"

[[record]]
molecule = "CCOC(=O)/C(=C(/C)NCC(C)C)c1cc(O)c(O)c2c(C)cc(=O)[nH]c12"
observed_result = "> 100 µM"


Provenance of the data: PubChem BioAssay (NCI)
